# experimental.system: Shiga toxin 2 (Escherichia coli O157:H7) (UniProt P09385+P09386)
# test.name: E. coli 0.157:H7 Shiga Toxin SOP - stx2 screening assay
# Format: functional
# Set-up: scale not given: direction of the effect not stated beside the values
# run.parameters: 30 µM
Percent Effect strictly less than -10% = met. Otherwise not met.

Check out these entries, answers already filled in.
>>> assigned_label("O=C(CN1CCCCC1Cn1cccn1)NC1CCN(C2CC2)CC1 (stereo not drawn)")
"not met"
>>> assigned_label("Cc1ccc(C(=O)N2C[C@@H](OCC3CCOCC3)[C@H]3OCCC[C@H]32)o1")
"met"
>>> assigned_label("Cc1cnn(CCC(=O)N2CCCC(c3cc(C(N)=O)[nH]n3)C2)c1 (stereo not drawn)")
"met"
>>> assigned_label("CN1CCN(Cc2cccnc2)C2(CCN(c3ncc(F)cn3)C2)C1=O (stereo not drawn)")
"met"
>>> assigned_label("Cc1cc(C)n(CC2CCCN2C(=O)CCCc2ccccn2)n1 (stereo not drawn)")
"not met"
>>> assigned_label("CNC(=O)c1cccc(C2CNCCN2C(C)=O)c1 (stereo not drawn)")
"not met"

# input Please check: Percent Effect for CC(O)CN1CCC(CNCc2cccc(OC(C)C)c2)CC1 (stereo not drawn) , strictly under -10% or not?
# output met

# input Please check: Percent Effect for CCNc1nc2c(s1)C(=O)CN(C(=O)NCCc1ccccc1)C2 , strictly under -10% or not?
# output met

# input Please check: Percent Effect for O=C(c1cccnc1)N1C[C@@H]2CC[C@H](C1)N(Cc1cccc(Cl)c1F)C2 , strictly under -10% or not?
# output met

# input Please check: Percent Effect for CCN1CCN(c2ccc(F)cc2C(C)NCc2noc(C)n2)CC1 (stereo not drawn) , strictly under -10% or not?
# output not met

# input Please check: Percent Effect for Cn1ccc(-c2cc(C(=O)N3CCOCC3)c3ccccn23)n1 , strictly under -10% or not?
# output met

# input Please check: Percent Effect for CC(C)CN1CCCC2(CCN(C(=O)c3cnccn3)C2)C1 (stereo not drawn) , strictly under -10% or not?
# output not met

# input Please check: Percent Effect for CN(Cc1ccco1)[C@@H]1CN(Cc2ccco2)[C@@H]2CCCO[C@H]12 , strictly under -10% or not?
# output not met

# input Please check: Percent Effect for Cc1ccc(C(=O)Nc2cn[nH]c2)cc1C , strictly under -10% or not?
# output not met
